TEST SYSTEM: GST-CIB1 : F-scrambled peptide (Homo sapiens, UniProt Q99828)
Construct: made in house; host or cells: BL-21 plus RIL cells (E. coli)
Sequence (Q99828 whole entry): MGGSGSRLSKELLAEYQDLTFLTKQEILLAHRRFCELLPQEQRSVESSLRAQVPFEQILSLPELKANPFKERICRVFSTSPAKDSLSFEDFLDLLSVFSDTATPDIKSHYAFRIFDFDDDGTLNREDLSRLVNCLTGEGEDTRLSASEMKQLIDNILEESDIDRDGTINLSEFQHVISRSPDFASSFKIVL
METHOD SUMMARY: FP scrambled-peptide counter screen, 384-well format
Format: binding
SETUP CONDITIONS: F-scrambled peptide; read-out: 384-well COUNTERSCREEN IC50
pIC50: −log10 of the molar value.
OBSERVED PROPERTY: pIC50

Below are worked cases with known answers.
1. Cc1cc(F)ccc1S(=O)(=O)Nc1cnccc1C(=O)Nc1nc(-c2ccccc2)cs1 [NCGC00345106-03]
< 3.92
2. Cc1ccc(S(=O)(=O)Nc2cnccc2C(=O)Nc2nc(-c3nc4ccccc4s3)cs2)cc1.O=C(O)C(F)(F)F [NCGC00343736-01]
< 3.92
3. O=C(Nc1nc(-c2ccccc2)cs1)c1ccncc1NS(=O)(=O)c1ccccc1Cl.O=C(O)C(F)(F)F [NCGC00344943-01]
< 3.92
4. COc1cccc(-c2csc(NC(=O)c3ccncc3NS(=O)(=O)c3ccc(C)cc3)n2)c1 [NCGC00319006-02]
< 3.92
5. Cc1nc(/N=N\c2cc(S(=O)(=O)O)c3cc([N+](=O)[O-])cc(S(=O)(=O)O)c3c2)c(COP(=O)(O)O)c(C=O)c1O [NCGC00162294-03]
5.48

Determine reported pIC50 for Cc1ccc(S(=O)(=O)Nc2cnccc2C(=O)Nc2nc3ccccc3s2)cc1.O=C(O)C(F)(F)F [NCGC00343897-01] ; test system: GST-CIB1 : F-scrambled peptide (Homo sapiens, UniProt Q99828). < 3.92

Please look at COc1ccc(CNC(=O)c2nc(S(=O)(=O)Cc3ccccc3)ncc2Cl)cc1.O=C(O)C(F)(F)F [NCGC00117170-03] and tell me its recorded pIC50 on GST-CIB1 : F-scrambled peptide (Homo sapiens, UniProt Q99828). < 3.92

GET pIC50 | system: GST-CIB1 : F-scrambled peptide (Homo sapiens, UniProt Q99828) | item: Oc1ccc2ccccc2c1SSc1c(O)ccc2ccccc12 [NCGC00186047-02, IPA-3, reference compound] < 3.92

Reference for the values: paper PMC11249646
